- Tested on: JAK1/TYK2 pSTAT5 (Tyr694/699) in THP-1 cell line
- measurement-protocol: IFNa-stimulated JAK1/TYK2 pSTAT5 (Tyr694/699) inhibition cellular assay, AlphaLISA
- Assay type: cell-based
- condition: Homo sapiens; THP-1 cells, IFNa-stimulated, AlphaLISA (Assay B); read-out: Cellular THP1_IFNa-pSTATS_IC50
Counter-ions that a name gives are not always drawn.
metric-name: IC50

Consider CNc1ncc(-c2cnc(C)o2)c2cc(NC(=O)C3CC3)ncc12 [Example 130] . Its measured IC50 is > 500 nM

The recorded IC50 for CNc1ncc(-c2nc3ccccc3o2)c2cc(NC(=O)C3CC3)ncc12 [Example 142] is ≤ 500 nM

Reported IC50 ( CNc1ncc(-c2ccc(OC(F)F)cc2)c2cc(NC(=O)C3CC3)ncc12 [Example 112] ) = > 500 nM

Entry under test: CNc1ncc(-c2ccc(OC)cc2)c2cc(NC(=O)C3CC3)ncc12 [Example 13, formate] . Its IC50 was > 500 nM

Per the records, this compound ( CNc1ncc(-c2ccc3c(c2)OCCO3)c2cc(NC(=O)C3CC3)ncc12 [Example 108] ) has IC50 equal to > 500 nM

Given item CNc1ncc(-c2ccc(C(F)(F)F)cc2)c2cc(NC(=O)C3CC3)ncc12 [Example 109] , the value recorded as its IC50 is > 500 nM

Short answer for CNc1ncc(-c2conc2C)c2cc(NC(=O)C3CC3)ncc12 [Example 36] : IC50 was > 500 nM

In plain terms, CNc1ncc(-c2cc3ccccc3o2)c2cc(NC(=O)C3CC3)ncc12 [Example 114] has a documented IC50 of ≤ 500 nM

Data point: CNc1ncc(-c2ccccc2)c2cc(Nc3ccccn3)ncc12 [Example 92] ; IC50 = > 500 nM

The compound listed as CNc1ncc(C2CCOCC2)c2cc(NC(=O)C3CC3)ncc12 [Example 68] has a reported IC50 of > 500 nM

CNc1ncc(C2=CCOC2)c2cc(NC(=O)C3CC3)ncc12 [Example 75] has a reported IC50 of > 500 nM

// recorded IC50 for CNc1ncc(-c2ccc(-n3cccn3)cc2)c2cc(NC(=O)C3CC3)ncc12 [Example 166] : > 500 nM

Measured IC50, CNc1ncc(-c2ccccc2)c2cc(NC(=O)C3CC3(F)F)ncc12 (stereo not drawn) [Example 105] : > 500 nM

Summary for this compound, CNc1ncc(-c2csc(C)n2)c2cc(NC(=O)C3CC3)ncc12 [Example 81] : IC50 is > 500 nM

Record CNc1ncc(C2=CCCOC2)c2cc(NC(=O)C3CC3)ncc12 [Example 77] , field IC50: > 500 nM

Summary for this compound, CNc1ncc(-c2c[nH]c3ncccc23)c2cc(NC(=O)C3CC3)ncc12 [Example 106] : IC50 is > 500 nM

Entry CNc1ncc(-c2nc3c(OC)cccc3o2)c2cc(NC(=O)C3CC3)ncc12 [Example 180] ; IC50 = ≤ 500 nM

IC50 reading for C=C(c1ccccc1OC)c1cnc(NC)c2cnc(NC(=O)C3CC3)cc12 [Example 175] : > 500 nM

IC50 recorded for this compound, CNc1ncc(-c2ccccc2)c2cc(NCc3ccc(OC)cc3)ncc12 [Example 98] , is > 500 nM

Entry under test: CNc1ncc(-c2ccccc2C)c2cc(NC(=O)C3CC3)ncc12 [Example 35] . Its IC50 was > 500 nM

Just so you know, measured IC50 for CNc1ncc(-c2ccn3nc(N4CCC4)nc3c2)c2cc(NC(=O)C3CC3)ncc12 [Example 156] came out at > 500 nM

IC50 in this record for CNc1ncc(-c2nc3ccccc3s2)c2cc(NC(=O)C3CC3)ncc12 [Example 145] : ≤ 500 nM

Summary for this compound, CNc1ncc(-c2ccccc2SC)c2cc(NC(=O)C3CC3)ncc12 [Example 47] : IC50 is > 500 nM

Memo: CCn1nccc1-c1cnc(NC)c2cnc(NC(=O)C3CC3)cc12 [Example 19] , reported IC50: > 500 nM
